ASSAY_COMMENT: The drug is tested on Bifidobacterium longum subsp. Infantis strain: CCUG52486 for biotransformation. The drug concentrations were measured before and after a 12-h incubation by liquid-chromatography-coupled mass spectrometry (LC–MS)
MEASUREMENT_PARAMETERS: 2 µM
METRIC_NAME: Bacterial Biotransformation

# COMPOUND, Bacterial Biotransformation
measured = [
    ("Cc1cn([C@H]2C[C@H](N=[N+]=[N-])[C@@H](CO)O2)c(=O)[nH]c1=O", "Compound NOT metabolized"),
    ("CCN1CCCC1CNC(=O)c1cc(S(=O)(=O)CC)c(N)cc1OC (stereo unspecified) [AMISULPRIDE]", "Compound NOT metabolized"),
    ("CCc1nc(N)nc(N)c1-c1ccc(Cl)cc1", "Compound NOT metabolized"),
    ("NC12CC3CC(CC(C3)C1)C2", "Compound NOT metabolized"),
    ("O=c1n(CCCN2CCN(c3cccc(Cl)c3)CC2)nc2ccccn12", "Compound NOT metabolized"),
]

Task: What value of Bacterial Biotransformation has been recorded for this entry: `COc1ccc2cc([C@H](C)C(=O)O)ccc2c1`
Result: Compound NOT metabolized

Task: What value of Bacterial Biotransformation has been recorded for this entry: CC1OC(OC2C(O)CC(OC3C(O)CC(OC4CCC5(C)C(CCC6C5CCC5(C)C(C7=CC(=O)OC7)CCC65O)C4)OC3C)OC2C)CC(O)C1O (stereo unspecified)
Result: Compound NOT metabolized

Task: What value of Bacterial Biotransformation has been recorded for this entry: Cc1nc2n(c(=O)c1CCN1CCC(c3noc4cc(F)ccc34)CC1)CCCC2O (stereo unspecified)
Result: Compound metabolized

Task: What value of Bacterial Biotransformation has been recorded for this entry: CC(=O)OCC(=O)NCCCOc1cccc(CN2CCCCC2)c1 [ROXATIDINE ACETATE]
Result: Compound metabolized

Task: What value of Bacterial Biotransformation has been recorded for this entry: `CC#C[C@]1(O)CC[C@H]2[C@@H]3CCC4=CC(=O)CCC4=C3[C@@H](c3ccc(N(C)C)cc3)C[C@@]21C`
Result: Compound NOT metabolized

Task: What value of Bacterial Biotransformation has been recorded for this entry: `O=C(CCCN1CCC2(CC1)C(=O)NCN2c1ccccc1)c1ccc(F)cc1`
Result: Compound NOT metabolized

Task: What value of Bacterial Biotransformation has been recorded for this entry: `CCS(=O)(=O)CCn1c([N+](=O)[O-])cnc1C`
Result: Compound metabolized

Task: What value of Bacterial Biotransformation has been recorded for this entry: `Cc1cc2c(s1)Nc1ccccc1N=C2N1CCN(C)CC1`
Result: Compound NOT metabolized

Task: What value of Bacterial Biotransformation has been recorded for this entry: OC(c1cc(C(F)(F)F)nc2c(C(F)(F)F)cccc12)C1CCCCN1 (stereo unspecified)
Result: Compound NOT metabolized

Task: What value of Bacterial Biotransformation has been recorded for this entry: `COc1cc2nc(N3CCN(C(=O)c4ccco4)CC3)nc(N)c2cc1OC`
Result: Compound NOT metabolized

Task: What value of Bacterial Biotransformation has been recorded for this entry: CCN(CC)CCNC(=O)c1ccc(NC(C)=O)cc1 [ACECAINIDE]
Result: Compound NOT metabolized

Task: What value of Bacterial Biotransformation has been recorded for this entry: OC(CCN1CCCCC1)(c1ccccc1)C1CCCCC1 (stereo unspecified)
Result: Compound NOT metabolized

Task: What value of Bacterial Biotransformation has been recorded for this entry: CC(CCc1ccccc1)NCC(O)c1ccc(O)c(C(N)=O)c1 (stereo unspecified)
Result: Compound NOT metabolized

Task: What value of Bacterial Biotransformation has been recorded for this entry: COc1cc(NC(C)CCCN)c2ncccc2c1.O=P(O)(O)O.O=P(O)(O)O (stereo unspecified) [PRIMAQUINE PHOSPHATE]
Result: Compound metabolized

Task: What value of Bacterial Biotransformation has been recorded for this entry: O=C1C(CC[S+]([O-])c2ccccc2)C(=O)N(c2ccccc2)N1c1ccccc1 (stereo unspecified)
Result: Compound NOT metabolized

Task: What value of Bacterial Biotransformation has been recorded for this entry: O=c1[nH]c2ccccc2n1C1CCN(CCCC(c2ccc(F)cc2)c2ccc(F)cc2)CC1 [PIMOZIDE]
Result: Compound NOT metabolized

Task: What value of Bacterial Biotransformation has been recorded for this entry: `CCOc1ccc(NC(C)=O)cc1`
Result: Compound NOT metabolized

Task: What value of Bacterial Biotransformation has been recorded for this entry: CS(=O)(=O)O.OC(CCN1CCCCC1)(c1ccccc1)c1ccccc1 [PRIDINOL METHANESULFONATE]
Result: Compound NOT metabolized

Task: What value of Bacterial Biotransformation has been recorded for this entry: CCCCCCOC(=O)/N=C(/N)c1ccc(NCc2nc3cc(C(=O)N(CCC(=O)OCC)c4ccccn4)ccc3n2C)cc1.CS(=O)(=O)O [DABIGATRAN ETEXILATE MESYLATE]
Result: Compound NOT metabolized

Task: What value of Bacterial Biotransformation has been recorded for this entry: CCCC(C)(COC(N)=O)COC(=O)NC(C)C (stereo unspecified)
Result: Compound NOT metabolized

Task: What value of Bacterial Biotransformation has been recorded for this entry: CC(C)NCC(O)COc1ccc(CC(N)=O)cc1 (stereo unspecified)
Result: Compound NOT metabolized

Task: What value of Bacterial Biotransformation has been recorded for this entry: CN(C)CC(c1ccc(O)cc1)C1(O)CCCCC1.O=C(O)CCC(=O)O (stereo unspecified) [DESVENLAFAXINE SUCCINATE]
Result: Compound NOT metabolized

Task: What value of Bacterial Biotransformation has been recorded for this entry: `CN[C@H]1CC[C@@H](c2ccc(Cl)c(Cl)c2)c2ccccc21`
Result: Compound NOT metabolized
